Test system: M14
Assay: Cytotoxicity against human M14 cells
Format: functional
Settings: read-out: pTGI (converted)
Reported TGI values for the following compounds.
Report only the number, with the unit µM understood.

## Input Would you kindly share the measured TGI for CC1=C([Se]CC(OC(=O)[C@@H](CO)NC(=O)OC(C)(C)C)C(=O)NCCCCCC(=O)OCc2ccccc2)C(=O)c2ccccc2C1=O (some centres undefined) ?
## Output 3.31

## Input // same read-out, input: CC1=C([Se]CC(OC(=O)[C@@H](CO)NC(=O)OC(C)(C)C)C(=O)NC(C)(C)C)C(=O)c2ccccc2C1=O (some centres undefined)
## Output 3.02

## Input Quick one: CC1=C(SCCC(=O)OC(C[Se]C2=C(C)C(=O)c3ccccc3C2=O)C(=O)NCCCCCC(=O)OCc2ccccc2)C(=O)c2ccccc2C1=O (centres undefined)
## Output 4.27

Further cases:
## Input # query: TGI of entry CC1=C([Se]CC(OC(=O)[C@@H](CSSC(C)(C)C)NC(=O)C(C)(C)C)C(=O)NCCCCCC(=O)OCc2ccccc2)C(=O)c2ccccc2C1=O (some centres undefined)
## Output 4.07
